As shown below, each of these molecules has a reported TΔS value.
experimental target: Marasmius oreades lectin (MOA, cMOA) (Marasmius oreades)
Sequence (Q8X123 1-293): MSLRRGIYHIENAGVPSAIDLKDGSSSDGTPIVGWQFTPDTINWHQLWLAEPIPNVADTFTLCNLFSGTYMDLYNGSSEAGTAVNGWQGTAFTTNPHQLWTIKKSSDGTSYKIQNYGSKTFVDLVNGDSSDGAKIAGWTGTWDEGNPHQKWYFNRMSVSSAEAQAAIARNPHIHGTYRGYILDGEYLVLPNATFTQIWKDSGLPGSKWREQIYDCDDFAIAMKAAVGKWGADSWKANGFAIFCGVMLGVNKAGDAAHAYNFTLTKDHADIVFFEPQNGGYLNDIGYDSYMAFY
test name: Isothermal titration calorimetry, MOA of Example 1 (proteolyzed, clipped form, cMOA)
Format: binding
assay conditions: isothermal titration calorimetry

>  <molecule>
CC1OC(OC2C(OC3C(CO)OC(O)C(O)C3O)OC(CO)C(O)C2O)C(O)C(O)C1O (stereo not drawn)

>  <TΔS / kcal/mol>
6.4

$$$$
>  <molecule>
OC[C@H]1O[C@H](O[C@H]2[C@@H](O)[C@@H](CO)OC(O)[C@@H]2O)[C@H](O)[C@@H](O)[C@H]1O (stereo partly drawn)

>  <TΔS / kcal/mol>
15.0

$$$$
>  <molecule>
OC[C@H]1O[C@@H](O[C@H]2[C@H](O)[C@@H](O)C(O)O[C@@H]2CO)[C@H](O)[C@@H](O)[C@H]1O (stereo partly drawn)

>  <TΔS / kcal/mol>
5.76

$$$$
>  <molecule>
CC(=O)N[C@H]1C(O)O[C@H](CO)[C@@H](O[C@@H]2O[C@H](CO)[C@H](O)[C@H](O)[C@H]2O)[C@@H]1O (stereo partly drawn)

>  <TΔS / kcal/mol>
10.9

$$$$
>  <molecule>
CC(=O)N[C@H]1C(O)O[C@H](CO)[C@@H](O[C@@H]2O[C@H](CO)[C@H](O)[C@H](O[C@H]3O[C@H](CO)[C@H](O)[C@H](O)[C@H]3O)[C@H]2O)[C@@H]1O (stereo partly drawn)

>  <TΔS / kcal/mol>
15.2

$$$$
>  <molecule>
CO[C@@H]1O[C@H](CO)[C@@H](O)[C@H](O[C@@H]2O[C@H](CO)[C@H](O)[C@H](O)[C@H]2O)[C@H]1NC(C)=O

>  <TΔS / kcal/mol>
3.49

$$$$
